Origin of values: paper PMC12000094

Test system: HCoV-229E
Test: microbe, parasite or virus in culture
Assay type: cell-based, HCoV-229E (Huh-7 cells)
Conditions: read-out: IC50 (inhibition of luciferase expression, HCoV-229E infection)
Square brackets hold non-standard residues; d marks the D form. Peptide text beside a SMILES is read from it. Nle = CCCC[C@H](N)C(=O)O
Catalogue of pIC50 readings, one per entry.
Please treat pIC50 as minus the base-10 logarithm of the molar concentration.

Use the examples below as a reference point.
pIC50 lookup needed for CCCC[C@@H](C=O)NC(=O)[C@H](CC(C)C)NC(=O)[C@H](CC(C)C)NC(C)=O [MG-101] (Ac-Leu-Leu-[Nle]-aldehyde) , thanks.
5.55

pIC50 lookup needed for CC(C)C[C@H](NC(=O)OCc1ccccc1)C(=O)N[C@@H](CC1CCNC1=O)C(O)S(=O)(=O)O (stereo partly shown) [GC376] , thanks.
6.46

pIC50 lookup needed for O=c1cc(-c2ccc(O)c(O)c2)oc2cc(O[C@@H]3O[C@H](CO)[C@@H](O)[C@H](O)[C@H]3O)cc(O)c12 [Cynaroside, luteolin 7-O-β-D-glucoside] , thanks.
4.67

# evaluate next
pIC50 lookup needed for CC(C)(C)c1ccc(N(C(=O)c2cnc[nH]2)[C@@H](C(=O)NC2CCCCC2)c2cccnc2)cc1 [X77] , thanks.
6.34
